Reported GI50 at 72 h values for the following compounds.
RUN DESCRIPTION: Cytotoxicity against wild-type MDCK2 cells assessed as reduction in cell viability after 72 hrs by MTT assay
Type: cell-based, Canis lupus familiaris
RUN PARAMETERS: dog, wild-type MDCK2 (MDCK-II) cells

>  <COMPOUND>
O=C(c1ccccc1)N1CCc2c([nH]c3ccccc23)C1c1ccc(Cl)cc1 (stereo not drawn)

>  <UNIT DESCRIPTOR>
µM

>  <GI50 at 72 h>
16.4

$$$$
>  <COMPOUND>
O=C(c1ccccc1)N1CCc2c([nH]c3ccccc23)C1c1ccccc1 (stereo not drawn)

>  <UNIT DESCRIPTOR>
µM

>  <GI50 at 72 h>
12.4

$$$$
>  <COMPOUND>
COc1ccc(C(=O)N2CCc3c([nH]c4ccccc34)C2c2ccc(Cl)c(Cl)c2)cc1 (stereo not drawn)

>  <UNIT DESCRIPTOR>
µM

>  <GI50 at 72 h>
4.83

$$$$

----------
TARGET OR SYSTEM: Broad substrate specificity ATP-binding cassette transporter ABCG2 (Homo sapiens)
RUN DESCRIPTION: Inhibition of human ABCG2 expressed in baculovirus infected Sf9 cell membrane assessed as inhibition of vanadate sensitive basal ATPase activity after 20 mins by colorimetric method
IC50 vs 40 nM: less than gives class 1; not less than gives class 0.

>  <MOLECULE>
COc1cccc(C(=O)N2CCc3c([nH]c4ccccc34)C2c2ccc(Cl)c(Cl)c2)c1 (configuration not stated)

>  <GROUP>
class 1

$$$$
>  <MOLECULE>
COc1ccc2[nH]c3c(c2c1)CCN(C(=O)c1ccccc1)C3c1ccc(Cl)c(Cl)c1 (configuration not stated)

>  <GROUP>
class 1

$$$$
>  <MOLECULE>
O=C(c1ccccc1)N1CCc2c([nH]c3ccccc23)C1c1ccc(Cl)cc1 (configuration not stated)

>  <GROUP>
class 0

$$$$
>  <MOLECULE>
O=C(c1ccccc1)N1CCc2c([nH]c3ccccc23)C1c1ccc(Cl)c(Cl)c1 (configuration not stated)

>  <GROUP>
class 1

$$$$
>  <MOLECULE>
COc1ccc(C(=O)N2CCc3c([nH]c4ccccc34)C2c2ccc(Cl)c(Cl)c2)cc1 (configuration not stated)

>  <GROUP>
class 1

$$$$
>  <MOLECULE>
O=C(c1ccccc1)N1CCc2c([nH]c3ccccc23)C1c1ccc(Br)cc1 (configuration not stated)

>  <GROUP>
class 0

$$$$
>  <MOLECULE>
O=C(c1ccccc1)N1CCc2c([nH]c3ccccc23)C1c1ccccc1 (configuration not stated)

>  <GROUP>
class 0

$$$$

----------
Readings of pIC50 for the listed compounds
TARGET OR SYSTEM: Broad substrate specificity ATP-binding cassette transporter ABCG2 (Homo sapiens)
Sequence (Q9UNQ0 whole entry): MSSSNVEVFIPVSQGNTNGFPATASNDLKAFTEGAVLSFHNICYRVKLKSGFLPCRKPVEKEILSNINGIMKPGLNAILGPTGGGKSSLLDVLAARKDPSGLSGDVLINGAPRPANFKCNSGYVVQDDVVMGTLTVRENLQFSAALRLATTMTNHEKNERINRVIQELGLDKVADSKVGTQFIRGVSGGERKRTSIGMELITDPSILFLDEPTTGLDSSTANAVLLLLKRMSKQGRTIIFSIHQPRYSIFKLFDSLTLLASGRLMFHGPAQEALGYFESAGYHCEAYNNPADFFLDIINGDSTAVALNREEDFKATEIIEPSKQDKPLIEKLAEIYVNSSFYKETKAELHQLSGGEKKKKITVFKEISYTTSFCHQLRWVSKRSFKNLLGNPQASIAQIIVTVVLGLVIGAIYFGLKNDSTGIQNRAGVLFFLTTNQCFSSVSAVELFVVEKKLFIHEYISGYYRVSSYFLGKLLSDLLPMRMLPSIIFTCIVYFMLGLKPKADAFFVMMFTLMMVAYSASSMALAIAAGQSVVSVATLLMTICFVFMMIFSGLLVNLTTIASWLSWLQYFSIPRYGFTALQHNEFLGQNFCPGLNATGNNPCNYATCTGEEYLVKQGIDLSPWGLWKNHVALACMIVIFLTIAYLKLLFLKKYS
RUN DESCRIPTION: Inhibition of human ABCG2 expressed in MDCK2 cells assessed as reduction in Hoechst 33342 efflux pre-incubated for 30 mins before Hoechst 33342 addition and measured for 120 mins by microplate reader analysis
Format: cell-based
RUN PARAMETERS: read-out: IC50
pIC50: −log10 of the molar value.

>  <COMPOUND>
COc1ccc(C(=O)N2CCc3c([nH]c4ccccc34)C2c2ccccc2)cc1 (stereo not given)

>  <COMPARATOR>
=

>  <pIC50>
5.76

$$$$
>  <COMPOUND>
O=C(c1ccc(Cl)cc1)N1CCc2c([nH]c3ccccc23)C1c1ccc(Br)cc1 (stereo not given)

>  <COMPARATOR>
=

>  <pIC50>
5.75

$$$$
>  <COMPOUND>
COc1cccc(C2c3[nH]c4ccccc4c3CCN2C(=O)c2ccccc2)c1 (stereo not given)

>  <COMPARATOR>
=

>  <pIC50>
5.72

$$$$
>  <COMPOUND>
O=C(c1cccc2ccccc12)N1CCc2c([nH]c3ccccc23)C1c1ccc(Cl)c(Cl)c1 (stereo not given)

>  <COMPARATOR>
=

>  <pIC50>
5.88

$$$$
>  <COMPOUND>
O=C(c1ccccc1)N1CCc2c([nH]c3ccccc23)C1c1ccc(Br)cc1 (stereo not given)

>  <COMPARATOR>
=

>  <pIC50>
6.16

$$$$
>  <COMPOUND>
O=C(c1ccccc1)N1CCc2c([nH]c3ccccc23)C1c1cccc(Cl)c1 (stereo not given)

>  <COMPARATOR>
=

>  <pIC50>
6.06

$$$$
>  <COMPOUND>
CCn1c2c(c3ccccc31)CCN(C(=O)c1ccccc1)C2c1ccccc1 (stereo not given)

>  <COMPARATOR>
=

>  <pIC50>
4.98

$$$$
>  <COMPOUND>
O=C(c1ccc(Cl)cc1)N1CCc2c([nH]c3ccccc23)C1c1ccc(Cl)c(Cl)c1 (stereo not given)

>  <COMPARATOR>
=

>  <pIC50>
5.99

$$$$
>  <COMPOUND>
N#Cc1cccc(C2c3[nH]c4ccccc4c3CCN2C(=O)c2ccccc2)c1 (stereo not given)

>  <COMPARATOR>
=

>  <pIC50>
5.70

$$$$
>  <COMPOUND>
O=C(c1ccccc1)N1CCc2c([nH]c3ccccc23)C1c1cccc([N+](=O)[O-])c1 (stereo not given)

>  <COMPARATOR>
<

>  <pIC50>
5.00

$$$$
>  <COMPOUND>
c1ccc(CN2CCc3c([nH]c4ccccc34)C2c2ccccc2)cc1 (stereo not given)

>  <COMPARATOR>
<

>  <pIC50>
5.00

$$$$
>  <COMPOUND>
CC(=O)Nc1ccc(C2c3[nH]c4ccccc4c3CCN2C(=O)c2ccccc2)cc1 (stereo not given)

>  <COMPARATOR>
=

>  <pIC50>
5.11

$$$$
>  <COMPOUND>
O=C(c1ccccc1)N1CCc2c([nH]c3ccccc23)C1c1ccc(F)c(F)c1 (stereo not given)

>  <COMPARATOR>
=

>  <pIC50>
5.96

$$$$
>  <COMPOUND>
O=C(c1ccc(Cl)cc1)N1CCc2c([nH]c3ccccc23)C1c1ccc(F)c(F)c1 (stereo not given)

>  <COMPARATOR>
=

>  <pIC50>
5.90

$$$$
>  <COMPOUND>
COc1cccc(C(=O)N2CCc3c([nH]c4ccccc34)C2c2ccc(Cl)c(Cl)c2)c1 (stereo not given)

>  <COMPARATOR>
=

>  <pIC50>
6.62

$$$$
>  <COMPOUND>
COc1ccc(C(=O)N2CCc3c([nH]c4ccccc34)C2c2ccc(Cl)c(Cl)c2)cc1OC (stereo not given)

>  <COMPARATOR>
=

>  <pIC50>
6.16

$$$$
>  <COMPOUND>
COc1ccc(C(=O)N2CCc3c([nH]c4ccccc34)C2c2cccc(Cl)c2)cc1 (stereo not given)

>  <COMPARATOR>
=

>  <pIC50>
6.05

$$$$
>  <COMPOUND>
O=C(c1ccccc1)N1CCc2c([nH]c3ccccc23)C1c1ccc(F)cc1 (stereo not given)

>  <COMPARATOR>
=

>  <pIC50>
5.72

$$$$
>  <COMPOUND>
O=C(c1ccccc1)N1CCc2c([nH]c3ccccc23)C1c1ccccc1Cl (stereo not given)

>  <COMPARATOR>
<

>  <pIC50>
5.00

$$$$
>  <COMPOUND>
Clc1ccc(C2c3[nH]c4ccccc4c3CCN2Cc2ccccc2)cc1Cl (stereo not given)

>  <COMPARATOR>
<

>  <pIC50>
5.00

$$$$
